All figures here come from patent US20140005125A1.

Provide the recorded pKd for the entries that follow.
# TEST SYSTEM: T1, Recombinant murine PDGF-BB (mouse, UniProt P31240 82-190, limits assumed)
# T1 construct: For SPR chemically biotinylated on primary amines and captured on neutravidin; also called mouse PDGF-BB; PDGF-BB (mouse)
# T1 sequence (P31240 82-190 limits assumed): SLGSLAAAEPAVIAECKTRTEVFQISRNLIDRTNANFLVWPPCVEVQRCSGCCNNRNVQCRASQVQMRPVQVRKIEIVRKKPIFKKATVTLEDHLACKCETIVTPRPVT
# PROTOCOL NOTES: SPR (ProteOn), biotinylated PDGF-BB on neutravidin chip, DARPin injected; Kd from on- and off-rates
# Protocol: Biotinylated PDGF-BB molecules from human and mouse were immobilized in a flow cell through binding to coated […] and the interaction with various selected DARPins was analyzed. SPR was measured using a ProteOn instrument (BioRad) and measurement was performed according standard procedures known to the person skilled in the art. […] From the SRP traces obtained from the on-rate and off-rate measurements the on- and off-rate of the corresponding DARPin PDGF-BB interaction can be determined. […]
Formally, pKd is defined as -log10 of the concentration c, with c in mol/L.

Task item: Query pKd for DARPin #38 (designed binder) MRGSHHHHHHGSDLGDKLLWAAKHGQDDEVRILLAAGADVNAKDDEGSTPLHYAAVWGHLETVEVLLKAGADVNAQDIWGATPADLAALLGHEDIAEVLQKLN
Reply: 10.23

Task item: Give a short answer stating reported pKd for DARPin #33 (designed binder) MRGSHHHHHHGSDLGHKLLQAAEQGQDDEVRILLAAGADVNAKDEYGTTPLHFAAVWGHLEIVEVLLKAGADVNAQDVFGATPADLAAYVGHEDIAEVLQKLN .
Reply: 10.04

Task item: Quote pKd reported for DARPin #32 (designed binder) MRGSHHHHHHGSDLGHKLLQAAKHGQDDEVRILLAAGADVNAKDDEGTTPLHYAAVWGHLEIVEVLLKAGADVNAQDAYGATPADLAAFLGHEDIAEVLQKLN please.
Reply: 10.08

Task item: # return recorded pKd for input DARPin #49 (designed binder) MRGSHHHHHHGSDLGKKLLEAARAGQDDEVRILMANGADVNAQDLNGQTPLHLAADIGHLEIVEVLLKHGADVNAQDYAGSTPLRLAAWAGHLEIVEVLLKNGADVNANDYFGYTPLHLAAYFGHLEIVDVLLKHGADVNAQDKFGKTAFDISIDNGNEDLAEILQKLN
Reply: 9.99
